# System: SK-BR-3
# method: In vitro anti-tumor activity of molecular glue compounds, CellTiter-Lumi cell viability assay
# Format: cell-based
# condition.label: Homo sapiens; SK-BR-3 cells, 96 h incubation; read-out: Cell inhibitory activity (IC50 values) SK-BR-3
pIC50: −log10 of the molar value.
Below: a set of entries, each annotated with reported pIC50.

// known answers, use as guide
[
  {
    "compound": "O=C1CCC(N2Cc3cc(CNC(=O)Nc4ccc(CCCOC5CCNCC56CC6)c(Cl)c4)ccc3C2=O)C(=O)N1 (stereo not shown)",
    "pIC50": "7.30 to 8.00"
  },
  {
    "compound": "O=C1CCC(N2Cc3cc(CNC(=O)Nc4ccc(CCOCCC5CCCNC5)c(Cl)c4)ccc3C2=O)C(=O)N1 (stereo not shown)",
    "pIC50": "7.30 to 8.00"
  },
  {
    "compound": "O=C1CCC(N2Cc3cc(CNC(=O)Nc4ccc(CCCOC5CCCNC5)c(Cl)c4)ccc3C2=O)C(=O)N1 (stereo not shown)",
    "pIC50": "> 8.00"
  },
  {
    "compound": "CNCCOCCC1(c2ccc(NC(=O)NCc3ccc4c(c3)CN(C3CCC(=O)NC3=O)C4=O)cc2Cl)CCCCC1 (stereo not shown)",
    "pIC50": "7.00 to 7.30"
  },
  {
    "compound": "O=C1CCC(N2Cc3cc(CNC(=O)Nc4ccc(CCCOCCC5CCCNC5)c(Cl)c4)ccc3C2=O)C(=O)N1 (stereo not shown)",
    "pIC50": "7.30 to 8.00"
  },
  {
    "compound": "O=C1CCC(N2Cc3cc(CNC(=O)Nc4ccc(CCOCC5CCCNC5)c(Cl)c4)ccc3C2=O)C(=O)N1 (stereo not shown)",
    "pIC50": "7.30 to 8.00"
  },
  {
    "compound": "O=C1CCC(N2Cc3cc(CNC(=O)Nc4ccc(COCC5CCCNC5)c(Cl)c4)ccc3C2=O)C(=O)N1 (stereo not shown)",
    "pIC50": "7.30 to 8.00"
  },
  {
    "compound": "O=C1CCC(N2Cc3cc(CNC(=O)Nc4ccc(CCCCOC5CCCNC5)c(Cl)c4)ccc3C2=O)C(=O)N1 (stereo not shown)",
    "pIC50": "> 8.00"
  }
]

Task: Please tell me the measured pIC50 for CNC1COCC(OCCc2ccc(NC(=O)NCc3ccc4c(c3)CN(C3CCC(=O)NC3=O)C4=O)cc2Cl)C1 (stereo not shown) ; system: SK-BR-3.
Result: > 8.00

Task: Identify measured pIC50 obtained with SK-BR-3 for O=C1CCC(N2Cc3cc(CNC(=O)Nc4ccc(CCCOC5CCNC5)c(Cl)c4)ccc3C2=O)C(=O)N1 (stereo not shown) .
Result: > 8.00

Task: Send back SK-BR-3 pIC50 of O=C1CCC(N2Cc3cc(CNC(=O)Nc4ccc(CCCOCC5CCCN5)c(Cl)c4)ccc3C2=O)C(=O)N1 (stereo not shown) only.
Result: > 8.00

Task: Lab note: SK-BR-3 assay, enter pIC50 for CNCC1(COCCc2ccc(NC(=O)NCc3ccc4c(c3)CN(C3CCC(=O)NC3=O)C4=O)cc2Cl)CCCCC1 (stereo not shown) here
Result: > 8.00

Task: Name the value of pIC50 reported for CC1(OCCCc2ccc(NC(=O)NCc3ccc4c(c3)CN(C3CCC(=O)NC3=O)C4=O)cc2Cl)CCNCC1 (stereo not shown) when tested on SK-BR-3.
Result: > 8.00
